- System: UACC-62 melanoma
- assaySummary: NCI-60 one-dose screen, 48 h
- details: 10 µM unless noted
This is part of a sample that, as a whole, favours compounds with a hit. Of some 83,000 tested, about 20% had one in any assay. Active and inactive are the calls of the source. Rule for the calls: active = growth percent below 10; inactive = the rest.
Hello, when you answer, please use one of the following outcomes: True (active), False (inactive)

Study these solved cases before continuing.
molecule: CN(C)c1ccc2nc3ccc(=[N+](C)C)c([N+](=O)[O-])c-3sc2c1
targetOfAssay: UACC-62 melanoma
className: False

molecule: Cc1ccc(-c2nc(N3CCN(CC(=O)Nc4ccc(Cl)cc4)CC3)c3ccccc3n2)cc1
targetOfAssay: UACC-62 melanoma
className: False

molecule: COc1ccc(/C=N/Nc2cc(=O)[nH]c3ccc(Cl)cc23)cc1
targetOfAssay: UACC-62 melanoma
className: False

molecule: CSc1nc2ccc(C)cc2cc1/C=N/O
targetOfAssay: UACC-62 melanoma
className: False

molecule: CCCCOc1ccc(/C=N/NC(N)=S)cc1
targetOfAssay: UACC-62 melanoma
className: False

Input line: I'd appreciate the recorded outcome for `CCCCCCNC(=O)Oc1ccc(/C(=C(\C)c2ccc(Cl)cc2)c2ccc(OCCN3CCCCC3)cc2)cc1` from this test.
Output line: False

Input line: I'd appreciate the recorded outcome for `CCOC(=O)c1cn2ncnc(Oc3ccc(NC(=O)NCCN4CCOCC4)c(Cl)c3)c2c1C` from this test.
Output line: False

Input line: I'd appreciate the recorded outcome for `COc1ccc2sc3c(NCCCNCCO)nc4ccccc4c3c(=O)c2c1` from this test.
Output line: False

Input line: I'd appreciate the recorded outcome for `CCOC(=O)c1sc2ncc(-c3ccc(OC)cc3)n2c1C` from this test.
Output line: False

Input line: I'd appreciate the recorded outcome for `O=C(/C=C/c1sc(Cl)nc1Cl)c1ccc(Br)cc1` from this test.
Output line: False

* * *

- Test system: IGROV1 ovarian
- assaySummary: NCI-60 one-dose screen, 48 h (100 = growth as untreated, 0 = no growth, -100 = all killed)
- details: 10 µM unless noted
- Procedure: Growth inhibition of the IGROV1 human tumor cell line is measured as a screen for anti-cancer activity. Cells are grown in 96 well plates and exposed to the test compound for 48 hours. Compounds are tested at a single concentration, which is 10^-5 M for most compounds. The reported endpoint is percent growth (GI% or GIPRCNT), where numbers from 0 - 100% represent growth inhibition, and numbers from -100% - 0 represent cell death. For example, a value of 40 represents 60% growth inhibition. […]
Compounds without any hit were thinned out: in the full panel of roughly 83,000, 20% have a hit.
propertyName: growth (%)
Express the result in % but write the number alone.

molecule: CN(C)c1ccc(/C=N\Nc2cc(=O)[nH]c3ccc(Cl)cc23)cc1
targetOfAssay: IGROV1 ovarian
growth / %: 75.3
--
molecule: c1ccc2cc(C[n+]3ccn(CCCCCCn4cc[n+](Cc5ccc6ccccc6c5)c4)c3)ccc2c1
targetOfAssay: IGROV1 ovarian
growth / %: 58.1
--
molecule: NCCCNc1nc2ccccc2c2c(=O)c3cc(C(F)(F)F)ccc3sc12
targetOfAssay: IGROV1 ovarian
growth / %: 34.8
--
molecule: COc1c(B(O)O)cc(F)cc1-c1nc2ccc3[nH]ncc3c2c2c1CCCC2
targetOfAssay: IGROV1 ovarian
growth / %: 10.6
--
molecule: N#Cc1cccc(NC(=O)c2cc(-c3ccc(F)cc3F)ccc2O)c1
targetOfAssay: IGROV1 ovarian
growth / %: 29

# evaluate next
Input line: Record lookup: for IGROV1 ovarian, what growth belongs to CCN1C(=O)N(CC)C2Nn3c(s/c(=C4\C(=O)Nc5ccccc54)c3=O)=NC21 (centres undefined) ?
Output line: 52.3
